Test system: MCF-7 (estrogen receptor positive breast cancer cells)
measurement.protocol: Anti-proliferative activity against MCF-7 cells
Format: cell-based
conditions.used: Table 2; mean ± SD; read-out: Anti-Proliferation Activities of non-Noviosylated Olefin Dimers, MCF7
Experimental: Once synthesized, the library of coumermycin A1 analogs containing the olefinic and saturated linkers, were evaluated for anti-proliferative activity against SKBr3 (estrogen receptor negative, Her2 over-expressing breast cancer cells), MCF-7 (estrogen receptor positive breast cancer cells), A549 (human lung adenocarcinoma epithelial), HT29 (Human colon adenocarcinoma grade II), and PC3mm2 (androgen receptor insensitive prostate cancer) cell lines. […]
molecules and their reported IC50

| chem.smiles | IC50 (nM) |
| --- | --- |
| COc1cc2cc(NC(=O)C/C=C/CC(=O)Nc3cc4cc(OC)c(OC5CCN(C)CC5)c(C)c4oc3=O)c(=O)oc2c(C)c1OC1CCN(C)CC1 | 560 |
| COc1c(OC2CCN(C)CC2)ccc2cc(NC(=O)C/C=C/CC(=O)Nc3cc4ccc(OC5CCN(C)CC5)c(OC)c4oc3=O)c(=O)oc12 | 1460 |
| Cc1c(OC2CCN(C)CC2)ccc2cc(NC(=O)CCCC/C=C/CCCCC(=O)Nc3cc4ccc(OC5CCN(C)CC5)c(C)c4oc3=O)c(=O)oc12 | 730 |
